Listing of recorded GI50 by entry.
- Test system: SW-620
- EXPERIMENT_SUMMARY: NCI tumour cell line growth inhibition, 48 h
Calls of active or inactive are those of the source. No stated cut-off is given here; in the data, active = GI50 up to about 1.1 µM and inactive = higher.
PROPERTY_MEASURED: GI50

molecule=COC(=O)/C=C\C(C#N)(C#N)/N=C/c1ccsc1 property_measured=GI50 measured="1.28 µM (inactive)"
molecule=COc1ccc(/[N+]([O-])=C/c2ccc(OC(=S)S)c(OC)c2)cc1 property_measured=GI50 measured="30.9 µM (inactive)"
molecule=CN(C)/C=N/S(=O)(=O)c1nn2c(C=O)c(-c3ccccc3)nc2s1 property_measured=GI50 measured="3.76 µM (inactive)"
molecule=COC(=O)n1c(=O)n(-c2ccccc2)c(=O)n1C(=O)OC property_measured=GI50 measured="> 100 µM (inactive)"
molecule=O=c1[nH]cnc2c1ncn2[C@@H]1C[C@@H]1CO property_measured=GI50 measured="> 100 µM (inactive)"
molecule="O=C1OC(C2Cc3cc4c(cc3C2=O)CCC4)c2ccccc21 (stereo not given)" property_measured=GI50 measured="37.3 µM (inactive)"
molecule="Nc1nc(Cl)cc(NCC2(CO)CC(CCCc3ccccc3)C2)n1 (stereo not given)" property_measured=GI50 measured="> 100 µM (inactive)"
molecule=Cc1cc2c(C(C)C)c(O)c(O)c(/C=N\CCO)c2c(O)c1-c1c(C)cc2c(C(C)C)c(O)c(O)c(/C=N/CCO)c2c1O property_measured=GI50 measured="3.83 µM (inactive)"
molecule=NN/C(=N\S(=O)(=O)c1cc(Cl)c(Oc2ccc([N+](=O)[O-])cc2Cl)c(Cl)c1)Nc1ccc(Cl)cc1 property_measured=GI50 measured="28.7 µM (inactive)"
molecule="C=CCC1(CC)C(=O)NC(=O)NC1=O [ETALLOBARBITAL]" property_measured=GI50 measured="> 100 µM (inactive)"
